Cited source for all entries: the supplement of paper PMC10567573

B1: NCK2 (parent)
chain: YTGPSSSGRFAGREWYYGNVTRHQ

variants of: B1; experiment: protein stability index of a GFP-peptide fusion (GPS, HEK-293T) (PSI 1-6); higher = more stable; conditions: c terminus: a fixed tail appended;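 note: lentivirally expressed fusions sorted by FACS into six bins by GFP to DsRed ratio, PSI derived from sequencing read proportions per bin multiplied by bin number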
Kindly state protein stability index for each of the entries shown.

Incoming: Look up protein stability index for this variant: YTGPSMSGRFAGREWYYGNVTRHQ [S6M]
Outgoing: 2.35

Incoming: Next record, please: YTGPSSSGRFAGREWYYGNVTRHC [Q24C]
Outgoing: 2.61

Incoming: Next record, please: YTGCSSSGRFAGREWYYGNVTRHQ [P4C]
Outgoing: 3.83

Incoming: Next record, please: YTGPSSSGRFAGNEWYYGNVTRHQ [R13N]
Outgoing: 1.91

Incoming: Next record, please: YTGPSSSGRFAGREWYYGNATRHQ [V20A]
Outgoing: 1.73

Incoming: Next record, please: YTHPSSSGRFAGREWYYGNVTRHQ [G3H]
Outgoing: 1.71

Incoming: Next record, please: YTGPSSSGRLAGREWYYGNVTRHQ [F10L]
Outgoing: 1.44

Incoming: Next record, please: YTGPSSSGRNAGREWYYGNVTRHQ [F10N]
Outgoing: 2.13

Incoming: Next record, please: YTGPSSSGRFAGREWYYGNFTRHQ [V20F]
Outgoing: 1.59

Incoming: Next record, please: YTGPSSSGRFAGFEWYYGNVTRHQ [R13F]
Outgoing: 2.33

Incoming: Next record, please: YTGPMSSGRFAGREWYYGNVTRHQ [S5M]
Outgoing: 2.96
